- Test: label from the status in PepcDB records;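 note: failed if final PepcDB status was selected cloned or expressed and not failed if soluble or beyond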
Recorded metric: protein production

[[record]]
sequence_record = "MPLRCTKPLGATPATPTAPPTGRKGHQVAINGFITWILVTMSLVVYFLWAFIPTSFLDMVLASYYPDKYWAVAIPAILVMTMVYYLTVHFLLMLYRTDPLTDGFCVAQTNGAVRHESIENLVDVEDGVPPITDIPVSVASRLLFQPWN"
recorded_metric = "protein production"
test_value = "failed"

[[record]]
sequence_record = "ILTENTPYFEQLSVPQRSVGRIIGRGGETIRSICKASGAKITCDKESEGTLLLSRLIKISGTQKEVAAAKHLILEKVSEDEELRKRIAHSA"
recorded_metric = "protein production"
test_value = "not failed"

[[record]]
sequence_record = "MLKKYIPLVARSFLAVIFIYAGVNKVFNFAQTSESMAKAGLPIVGVLLIFTIAFQILGGLSIILGYKAEIGAILLIIFLIPATIVFHNPFADPSQFNNFFKNLSIIGGLLLILAYGSGTLSLEASDRSSYVSQPEE"
recorded_metric = "protein production"
test_value = "failed"

[[record]]
sequence_record = "MPTETFFNLPEEKRSRLIDVLLDEFAQNDYDSVSINRITERAGIAKGSFYQYFADKKDCYLYLIQLGIEQKTAFLRQTPPASTTDMFAYLRWLLDVGIQFQFHNPRLAQIAYKALYDDVPLPAETMQVIRHGSFAYFKQLVEQGIADGSLVPDLDADTAAFVLNVVFTELGNHLIERFAVNPAELLREGGIVLLQPAMRRVIEQVIDILERGMRRR"
recorded_metric = "protein production"
test_value = "not failed"

[[record]]
sequence_record = "MESITQIYRIGYGPSSSHTIGPRRAAEMFLDRNPRATSFRVTLYGSLAATGKGHLTDAAILAVLEAKAPTEIVWKPEIFQNFHPNGMLFESFDKEGKQLDDWLIYSIGGGVLANEHFNEQ"
recorded_metric = "protein production"
test_value = "not failed"

[[record]]
sequence_record = "MTCHNAAGALEPTGSAAKTLPDGLHALMTAEELAFFARFGRLREVSAGQSLFERGAVGTQMYIVVSGQIDLDFGEDLMLKHLGPGEFFGELGLLIGDHARSAGASASTDSRLIELAHDDFQRLVDQDPSMVAHFLRRSIVRVVNNEQLLIRQLRRRNHDLEAALDNLYVTSHQLNHTEELSRTDELTGLHNRRGLALHLQECRRAGHVPGVGLILIDCDRFKRINDEFGHLAGDRVLQNVAHALRSVIAEGDLACRLGGDEFCVLVAQGTSELVHHIGECIVRAVEARLCNGQGEQGCSVSVGSCMIDADAAWNDWYTLADSALYEAKRQGGNVLCMQETLALDQPPASGHR"
recorded_metric = "protein production"
test_value = "failed"


---

- Test: label from the status in PepcDB records
Recorded metric: protein production

[[record]]
sequence_record = "MTMIKGYSEKVEKIYSKLRKTEEDNLKSRREEIKDKLPKIIKIDSEISRLCLKLSTNIFKKINNRDEYIKSLKNEITNLRMERSELLVSNGYPMDYLQMHYNCSKCKDTGYIGAHKCSCYKKYLVQLYYDNSDLKSLLNENNFENFNINYYSNRKSEDEPRTPRKNMEKILSLSLNYIKNFSDSNENLLFYGNSGTGKTFLSHCIAKDLLERGFLVIYKTSADLAQELKQLQFEPNPTLEDLIINCDLLIIDDLGTEQISAFSKTCFFNLINKKLLSQKKMLISSNYNLEELTRLYSERITSRLFGDFTLCKFYGDDIRINRNLKNKKI"
test_value = "failed"

[[record]]
sequence_record = "MTDTSTADVDLVGEEMALNVARTALFAALMGAFAYVSFPYPLSPAPVTLQVLGVFLAGLLLGPLWGGAAMVVYLLAGVLGAPVFSAGEAGIGVILGPQGGYLLSYPFAAAIVGGIVHRGTDIKPLETVSAALMIAAMILSTVVIYAFGIPFMWWNLEMTLLNAVIAGGVVFIPAEAAKMAAAIGIVRSDAIRAE"
test_value = "failed"

[[record]]
sequence_record = "MIRVTFLPDQVSVEATAGEAWLSVAARAGVEIPTGCRMGSCGACTLELEDGQEIRACISTIAGDRDPAPLEDCPHITAYVFRDPTW"
test_value = "failed"

